Target: ZmDRIK1-R187-P492 (Zea mays, UniProt C0P4K9)
Construct: kinase domain, R187-P492
Sequence (C0P4K9 1-514): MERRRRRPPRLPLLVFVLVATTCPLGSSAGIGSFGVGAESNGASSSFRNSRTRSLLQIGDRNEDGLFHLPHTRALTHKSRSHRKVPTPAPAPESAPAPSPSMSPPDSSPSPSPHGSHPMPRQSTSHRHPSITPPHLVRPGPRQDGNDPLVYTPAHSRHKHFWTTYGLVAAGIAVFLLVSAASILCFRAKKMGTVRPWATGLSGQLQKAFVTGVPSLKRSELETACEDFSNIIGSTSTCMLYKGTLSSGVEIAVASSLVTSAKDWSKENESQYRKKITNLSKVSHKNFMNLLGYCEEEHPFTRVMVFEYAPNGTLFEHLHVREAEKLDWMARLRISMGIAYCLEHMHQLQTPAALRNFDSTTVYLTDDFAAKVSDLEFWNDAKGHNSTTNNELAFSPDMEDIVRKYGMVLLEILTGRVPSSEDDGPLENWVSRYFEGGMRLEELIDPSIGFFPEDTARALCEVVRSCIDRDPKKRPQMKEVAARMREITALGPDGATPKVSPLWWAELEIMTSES
Assay: biochemical
Settings: read-out: dTm B, DSF, Boltzmann fit, 0.1% DMSO
PROPERTY NAME: ΔTm at 10 µM (°C)
Just the number please, in °C, no unit attached.

## Input What does the data say about its ΔTm at 10 µM? Entry: C[C@@H](N)[C@H]1CC[C@H](C(=O)Nc2ccncc2)CC1 [Y-27632 2HCl]
## Output -0.155

## Input What does the data say about its ΔTm at 10 µM? Entry: `COc1ccc(-c2cc3c(C)nc(N)nc3n([C@H]3CC[C@H](OCCO)CC3)c2=O)cn1`
## Output -0.18

###

target: ZmDRIK1-R187-P492 (Zea mays, UniProt C0P4K9); construct: kinase domain, R187-P492; experiment: biochemical; conditions: read-out: dTm B, DSF, Boltzmann fit, 0.1% DMSO
// reported ΔTm at 10 µM per item

C=CC(=O)Nc1cccc(Oc2nc(Nc3ccc(N4CCN(C)CC4)cc3OC)ncc2Cl)c1 = -0.434 °C
CNC(=O)c1cc(Oc2ccc(NC(=O)Nc3cc(C(C)(C)C)nn3-c3ccc4ncccc4c3)c(F)c2)ccn1 [DCC-2036 (Rebastinib)] = -0.261 °C
C#Cc1cccc(Nc2ncnc3cc4c(cc23)OCCOCCOCCO4)c1 = -0.388 °C
CNC(=O)c1c(F)cccc1Nc1nc(Nc2cc3c(ccn3C(=O)CN(C)C)cc2OC)nc2[nH]ccc12 [GSK1838705A] = -0.292 °C

## Input What does the data say about its ΔTm at 10 µM? Entry: `Cn1c(Nc2ccc(C(F)(F)F)cc2)nc2cc(Oc3ccnc(-c4ncc(C(F)(F)F)[nH]4)c3)ccc21`
## Output -2.04 °C

## Input What does the data say about its ΔTm at 10 µM? Entry: `C[C@@H](Oc1cc(-c2cnn(C3CCNCC3)c2)cnc1N)c1c(Cl)ccc(F)c1Cl`
## Output -0.336 °C

## Input What does the data say about its ΔTm at 10 µM? Entry: `CC(C)(C)c1cc(C=C(C#N)C#N)cc(C(C)(C)C)c1O`
## Output -0.79 °C

## Input What does the data say about its ΔTm at 10 µM? Entry: `COCC(=O)NC/C=C/c1ccc2ncnc(Nc3ccc(Oc4ccc(C)nc4)c(C)c3)c2c1`
## Output -0.193 °C

## Input What does the data say about its ΔTm at 10 µM? Entry: `Cc1c(NC(=O)c2ccc(C(C)(C)C)cc2)cccc1-c1cn(C)c(=O)c(Nc2ccc(C(=O)N3CCOCC3)cc2)n1`
## Output -0.389 °C

## Input What does the data say about its ΔTm at 10 µM? Entry: `O=C(NCc1cccc(O)c1)Nc1nc(-c2ccncc2)cs1`
## Output 0.716 °C

## Input What does the data say about its ΔTm at 10 µM? Entry: `O=c1c(-c2ccc(O)cc2)coc2cc(O)cc(O)c12`
## Output -17.5 °C

## Input What does the data say about its ΔTm at 10 µM? Entry: `Cc1cc2c(F)c(Oc3ncnn4cc(OC[C@@H](C)O)c(C)c34)ccc2[nH]1`
## Output -0.365 °C

## Input What does the data say about its ΔTm at 10 µM? Entry: CC(C)CCN1c2nc(Nc3cc(F)c(O)c(F)c3)ncc2N(C)C(=O)C1C (stereo not shown)
## Output -0.479 °C

## Input What does the data say about its ΔTm at 10 µM? Entry: `NC1(Cc2ccc(Cl)cc2)CCN(c2ncnc3[nH]ccc23)CC1`
## Output -0.325 °C

## Input What does the data say about its ΔTm at 10 µM? Entry: `Nc1nccc(Oc2ccc(NC(=O)c3c[nH]cc(-c4ccc(F)cc4)c3=O)cc2F)c1Cl`
## Output 0.213 °C

## Input What does the data say about its ΔTm at 10 µM? Entry: O=C(NC(NC(=S)Nc1ccc(F)c([N+](=O)[O-])c1)C(Cl)(Cl)Cl)C(c1ccccc1)c1ccccc1 (stereo not shown)
## Output 0.467 °C

###

target: ZmDRIK1 (DROUGHT RESPONSIVE INACTIVE KINASE 1), kinase domain (Zea mays, UniProt C0P4K9); construct: gene ZEAMMB73_Zm00001d028770; ZmDRIK1-KD R187-S514 (kinase domain); test: biochemical; conditions: read-out: dTm B, sheet ZmDRIK1-R187-S514;; DSF, Boltzmann fit, 0.1% DMSO
PROPERTY NAME: ΔTm at 10 µM

## Input Return ΔTm at 10 µM measured with ZmDRIK1 (DROUGHT RESPONSIVE INACTIVE KINASE 1), kinase domain (Zea mays, UniProt C0P4K9) given this compound: COc1ccc(CNC(=O)Nc2ncc([N+](=O)[O-])s2)cc1 [AR-A014418]
## Output -1.03 °C

###

Target: ZmDRIK1-K217-P492 (Zea mays)
Construct: kinase domain, K217-P492
Sequence (C0P4K9 1-514): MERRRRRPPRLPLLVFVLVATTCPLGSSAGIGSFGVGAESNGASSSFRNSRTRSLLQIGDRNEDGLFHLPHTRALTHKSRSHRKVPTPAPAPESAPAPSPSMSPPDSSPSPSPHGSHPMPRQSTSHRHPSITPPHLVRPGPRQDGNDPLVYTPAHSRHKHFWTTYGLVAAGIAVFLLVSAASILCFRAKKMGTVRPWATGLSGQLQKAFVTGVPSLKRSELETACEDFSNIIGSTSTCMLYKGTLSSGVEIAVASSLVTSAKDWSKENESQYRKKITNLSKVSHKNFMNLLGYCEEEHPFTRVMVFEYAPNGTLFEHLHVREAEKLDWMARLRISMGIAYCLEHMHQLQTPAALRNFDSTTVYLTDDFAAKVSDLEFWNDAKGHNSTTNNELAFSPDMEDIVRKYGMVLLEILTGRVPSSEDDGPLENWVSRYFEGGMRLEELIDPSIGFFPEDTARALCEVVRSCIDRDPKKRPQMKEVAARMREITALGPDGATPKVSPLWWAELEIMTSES
Assay: biochemical
Settings: read-out: dTm B, sheet ZmDRIK1-K217-P492;; DSF, Boltzmann fit, 0.1% DMSO
Counter-ions that a name gives are not always drawn.
PROPERTY NAME: ΔTm at 10 µM (°C)
Just the number please, in °C, no unit attached.

Sample answers from the record:
COc1c(C)c(C(=O)c2ccc(N)c(C(=O)O)c2)n2ccccc12 [SSR128129E] = -0.939
CN(C)C/C=C/C(=O)Nc1cc2c(Nc3ccc(F)c(Cl)c3)ncnc2cc1O[C@H]1CCOC1 = -1.3
C#Cc1cccc(Nc2ncnc3cc(OCCOC)c(OCCOC)cc23)c1 [Erlotinib HCl (OSI-744)] = -1.09

Now, please, on to the next molecule.
## Input What does the data say about its ΔTm at 10 µM? Entry: `CNC(=O)c1cccc(-c2ccc3c(N4CCOC[C@@H]4C)nc(N4CCOC[C@@H]4C)nc3n2)c1`
## Output -0.984

###

// reported ΔTm at 10 µM per item
target: ZmDRIK1-R187-P492 (Zea mays, UniProt C0P4K9); construct: kinase domain, R187-P492; assay: biochemical; conditions: read-out: dTm B, DSF, Boltzmann fit, 0.1% DMSO
Please state the number and follow it with the unit.

Sample answers from the record:
Cc1cc(Nc2cc(CN3CCOCC3)c3nc(C)c(Cc4ccc(Cl)cc4F)n3n2)n[nH]1 [LY2784544] = -0.165 °C
Nc1nc(N)c2nc(-c3cccc(O)c3)c(-c3cccc(O)c3)nc2n1 [TG100-115] = -0.347 °C
COc1cc2ncnc(Nc3ccc(F)c(Cl)c3)c2cc1NC(=O)/C=C/CN1CCCCC1 [Dacomitinib (PF299804)] = -0.258 °C
CC(C)(C)c1cc(/C=C(\C#N)C(N)=S)cc(C(C)(C)C)c1O [Tyrphostin AG 879] = -0.277 °C
CC(C)(C)c1cc(C=C(C#N)C#N)cc(Br)c1O [AG-1024] = -0.615 °C

## Input What does the data say about its ΔTm at 10 µM? Entry: NC(=O)c1cccc(-c2cc(Nc3ccc(OC(F)(F)F)cc3)ncn2)c1 [GNF-2]
## Output -7.74 °C

## Input What does the data say about its ΔTm at 10 µM? Entry: CC(C)n1nc(-c2ccc3oc(N)nc3c2)c2c(N)ncnc21 [INK 128 (MLN0128)]
## Output -0.315 °C

## Input What does the data say about its ΔTm at 10 µM? Entry: CC(C)(C)c1nc(-c2cccc(NS(=O)(=O)c3c(F)cccc3F)c2F)c(-c2ccnc(N)n2)s1 [Dabrafenib (GSK2118436)]
## Output -0.533 °C
